Assay summary: Kinetic solubility of the compound in isotonic buffer at pH 7.4
Assay type: physicochemical
Test settings: read-out: Kinetic_solubility
Endpoint name: solubility kinetic (µM)

As a guide, the following entries are already answered.
Compound	solubility kinetic [µM]
CCOC(=O)c1cc(Sc2cccc(C(F)(F)F)c2)nn2c(-c3cccs3)nnc12	13
CC(Sc1ccc2nnc(-c3cccs3)n2n1)c1nnco1 (configuration not stated)	88
FC(F)(F)c1cccc(Sc2ccc3cnc(-c4cccs4)n3n2)c1	10

A. FC(F)(F)c1cccc(Sc2ccc3nnc(-c4ccccc4)n3n2)c1
B. FC(F)(F)c1cccc(Sc2cn3c(-c4cccs4)cnc3cn2)c1
Of A and B , whose reported solubility kinetic is numerically smaller? Refer to your chosen entry by its label in the reply.
A

A. CC(Sc1ccc2nnc(-c3cccs3)n2n1)C(N)=O (configuration not stated)
B. Cc1cc(Sc2cccc(C(F)(F)F)c2)nn2c(-c3cccs3)nnc12
# returns the entry with the larger solubility kinetic; inputs A and B Refer to your chosen entry by its label in the reply.
A
